- experimental.target: T1, AFP158/HLA-A*02:01 complex (human)
- T1 construct: flowed as analyte in SPR
- experiment.description: SPR, crude scFv captured, pMHC analyte;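 also: Peptide-MHC complex at several concentrations passed over captured scFv, association then buffer-driven dissociation, on- and off-rates fitted from the curves and KD estimated from them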
# koff values compiled below
value.type: koff (s⁻¹)

1. AS170036 VL1VH1-VHS57M (scFv) scFv: QSALTQPRSVSGSPGQSVTISCAGTSSDVGSENYVSWYQQHPGKAPKLMIYQVNKRASGVPDRFSGSKSGNTASLTISGLQAEDEADYYCASYRSSDHNIVFGGGTKLTVLGGGGSGGGGSGGGGSEVQLVESGGGLVQPGGSLRLSCAASGFTFSSYAMSWVRQAPGKGLEWVSTINSGTGMPYYADSVKGRFTISRDNSKNTLYLQMNSLRAEDTAVYYCAKNFFDGSWFLGPPAMDYWGQGTLVTVSSHHHHHH : 0.025
2. AS170036 VL1VH1-VLH98F (scFv) scFv: QSALTQPRSVSGSPGQSVTISCAGTSSDVGSENYVSWYQQHPGKAPKLMIYQVNKRASGVPDRFSGSKSGNTASLTISGLQAEDEADYYCASYRSSDFNIVFGGGTKLTVLGGGGSGGGGSGGGGSEVQLVESGGGLVQPGGSLRLSCAASGFTFSSYAMSWVRQAPGKGLEWVSTINSGTGSPYYADSVKGRFTISRDNSKNTLYLQMNSLRAEDTAVYYCAKNFFDGSWFLGPPAMDYWGQGTLVTVSSHHHHHH : 0.033
